The origin of these recorded values is the supplement of paper PMC9170038.

Test system: MS2 coat protein
Test: apparent KD of MS2 coat protein; designed switch direction (-1 OFF switch, 1 ON switch): -1; higher = weaker reporter binding
Conditions: input ligand: microRNA oligo, concentration not stated
OBSERVATION TYPE: apparent KD of MS2 coat protein (µM)
Use µM as the unit, but write only the number.

Req: Need apparent KD of MS2 coat protein of AAGUAGGGAGGAUAUACAUAGAUACAGAUUCAUGUAGAACUACAUGAGGAUCACCCAUGUAGAAGGCCCUAAUA [AJ 37] (Eterna round: R96, puzzle: Exclusion 2) , thanks.
Resp: 0.0251

Req: What about UGGACACCAGUAGGAUAUGUAGGAUAUGUUGUUGAGGAUCACCCAACAAAUUAAACGACAGAAGGACAGAAGGACUAUUAUCCU [pwkr exNG2 2xFMN 1xF5.1] (Eterna round: R96, puzzle: Exclusion NG 2) ?
Resp: 0.0578

Req: What about UAAUAAUAGUGAGGAUAUAGUUAUUAUAAUAUACUAGAAGGUACACAUGAGGAUCACCCAUGUUUUAUAAUUUGUAAUUUAAAU [4th something] (Eterna round: R96, puzzle: Exclusion NG 1) ?
Resp: 0.0184

* * *

Test system: MS2 coat protein
Assay: apparent KD of MS2 coat protein; designed switch direction (-1 OFF switch, 1 ON switch): 1; higher = weaker reporter binding
Settings: Eterna round: R95; input ligand: FMN 200 uM
OBSERVATION TYPE: apparent KD of MS2 coat protein (nM)
Use nM as the unit, but write only the number.

Worked examples, 3 sequences total:
- AGUCCAGCCUAAGCUGGACAAAAGCAUGUACAUGAGGAUCACCCAUGUUCAUGUACAAGCUUUUUGCUCGUCUUAAU [Mat - hsa-mir-208a - Mod of JL - 60] (puzzle: Sensor for hsa-mir-208a): 608
- AGUCCAGCAUGAGCUGGACAAAAGCAUGUACAUGAGGAUCACCCAUGUUCAUGUACAAGCUUUUUGCUCGUCUUAAA [Mat - hsa-mir-208a - Mod of JL - 45] (puzzle: Sensor for hsa-mir-208a): 807
- CGUCCGGCCUGAGCUGGUCGGAAGCAUGUACAUGAGGAUCACCCAUGUUCAUGUGCAGGCUUUUUGCUCGUCUUGUG [salish99_mir208a_modof_jandersonlee_004] (puzzle: Sensor for hsa-mir-208a): 39.8

Req: Need apparent KD of MS2 coat protein of CCAUGGUAACAUGAGGAUCACCCAUGUACAAGCUUUUUGCUCGUUUUAUUUAUUAUUAUUAUUAUUAUUAUUAUUAA [Nishu_Seq1] (puzzle: Sensor for hsa-mir-208a version 2) , thanks.
Resp: 33.5

Req: What about AUAAAACAUGAGGAUCACCCAUGUCAACAAAGUCGAGGAUAUGGGCAAAUAAAAUAAUAACCAGAAGGCGAAUAAU [salish99_ss1_r3_018] (puzzle: Same State 1) ?
Resp: 63.9

* * *

The following sequences are listed with their measured apparent KD of MS2 coat protein values.
Test system: MS2 coat protein
Assay: apparent KD of MS2 coat protein; designed switch direction (-1 OFF switch, 1 ON switch): -1; higher = weaker reporter binding
Settings: input ligand: none
Use nM as the unit, but write only the number.

Worked examples, 3 sequences total:
- CCCGGGUCAGGAUAUGGGCCCGGGCCCGAAAGGGCCCGGGCCCAGAAGGGACAUGAGGAUCACCCAUGUCCGGG [-53.1, -50.9 kcal, 20% A] (Eterna round: R97, puzzle: Exclusion 4): 24.3
- CCGCGUGUCGGACUGGGUUACAUGAGGAUCACCCAUGUUCGGUAAACUAAGCGUUUGCUCGUCUAAACCAUUCUCGA [Eternabot (Original) Solution 24] (Eterna round: R97, puzzle: Sensor, turn-off variant 1): 205
- GUCAUCACACAUGGGAUCAACAUGAGGAUCACCCAUGUUGCCAAGUUUUUUGCACGUCUUAUAAUACGUUUGAUGAG [Mod-Jxe] (Eterna round: R97, puzzle: Sensor, turn-off variant 1): 29.9

The record that follows has no apparent KD of MS2 coat protein shown yet.
Req: Reported apparent KD of MS2 coat protein for MS2 coat protein, given UCAUGUCCUGAGGAUAUGUAGCGGAUAAACGCAACAGAAGGCAGGACAUGAGGAUCACCCAUGUGUGCCUUCCA [Exclusion 6 Mod of JL of Mod of Letion by ViennaUCT] (Eterna round: R97, puzzle: Exclusion 6) ?
Resp: 113

* * *

The following sequences are listed with their measured apparent KD of K4 kissing-loop reporter values.
System: K4 kissing-loop RNA reporter
Test: apparent KD of K4 kissing-loop reporter; higher = weaker reporter binding
Conditions: Eterna round: R107; input ligand: none
Use µM as the unit, but write only the number.

* CGUACGGUUUCUUUCUUUCCGUACGAGUGCCGAGGACCGGUACGGCCGCCACUCGCUACAGCCUAGUGAUGUUAGGCGAUUCUUU | 0.125

Req: Need apparent KD of K4 kissing-loop reporter of CUGACUAAAUAGUCAGUGAUGUUGACUGGACGAGGACCGGUACGGCCGCCACUCGAGAGUGGUGUAAUAUAUGUCAUAUAGUCAA [Tryp A SS t3] , thanks.
Resp: 0.436

Req: What about AACGCUGGUGAAUAACACUAGCGAAAUUCGCGAGGACCGGUACGGCCGCCACUCGCUAACUGCGAGUGAUGUUCGAUAAUAAAAU [Mat - Mod of OpenEnded 3 - D7] ?
Resp: 0.197

Req: What about UUUUAAAUGUCUGAUACCAGAGAAAAUAUAUGUAGUGAUGUUAUAUACAAAAUAAAUAAGCUCCCUUGGCAGCAGUAUUAAUUUU [AstrosExc-TheB#6] ?
Resp: 0.863

Req: What about AUGGGUCCACGAAGGAGCGCCGUGCAGUGAUGUUGCAGUUAGAUCCAGUGAUGUUUGGGCCGGCAGGUAGGUCGCGUGGAUUUAU [Exclusion Arginine B GF 22] ?
Resp: 0.249

Req: What about GUUUGCCGGUUCCGGAGUGAUGUUCCGGAUACCAGCAACUUCCUUUGCCCUUGGCAGCCGUAGCUAUACCGGAUGGCAGCUUCAG [Arrexean] ?
Resp: 0.0893

Req: What about AAAAGAAAGUCGGCCGCCACUCAACGCAGUGAUGUUGCAAGACAGAAGACCAGUGAUGUUGGCCAGAGGACCGGGACAAAAGGCC [Same State Typtophan B GF 4] ?
Resp: 0.842

Req: What about GAUUUAGAGGCGGCCGCCACUAGUGAUGUUAGUGAUGUUUGAUACUGAAUAUAUCUGCGUGUAGAUAGGACCGGGCCAGAUGGAG [eyerullin] ?
Resp: 0.186

* * *

The following sequences are listed with their measured apparent KD of K4 kissing-loop reporter values.
Tested on: K4 kissing-loop RNA reporter;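 also: bound reporter read as fluorescence of individual clusters on recovered sequencing chips by microscopy, with normalized cluster intensities fitted with a binding model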
Assay: apparent KD of K4 kissing-loop reporter; higher = weaker reporter binding
Conditions: Eterna round: R107; input ligand: theophylline 20 uM
Use nM as the unit, but write only the number.

• AAAGGCAUAGCCCGAGUGAUGUUCGACGAUACCAGCCUCGAUAGAGGCCCUUGGCAGCGUAAAUGAUCAUGAAGCCAAGGAAUAA [whbob_Ex_Theo_A_th68] = 816
• AUUUAAUUAACUGAUACCAGACUUUAUGUAUUUAUUAAAACUAGUGAUGUUAGUUUAUCUGUCCCUUGGCAGCAGUUUCUACUUA [JR_Nu_ExcTheophyB_Sub021] = 105

Req: Need apparent KD of K4 kissing-loop reporter of CCGGCCCAGCCGGAUACCAGUGCGCCGCAGGGAACGGCGGGCCCAGAGUGAUGUUCGGGACACCCUUGGCAGCCGCCUGGGUCCU [#2 Same State - Theophylline B Attempt #29 (HarryS)] , thanks.
Resp: 767

* * *

System: MS2 coat protein
Assay: apparent KD of MS2 coat protein; designed switch direction (-1 OFF switch, 1 ON switch): -1; higher = weaker reporter binding
Details: Eterna round: R95; input ligand: microRNA oligo, concentration not stated
Binary call on apparent KD of MS2 coat protein: Satisfied from 30 nM upward, Not satisfied beneath that.

Examples from the recorded data:
* CUGGUCCGAGGAUAUAUAUUGUGAUACAUGAGGAUCACCCAUGUAAUAAUAUGGAUAUAAAUAGAAGGCGGACUAG [Mat - Exclusion 5 - JL mod - D49] (puzzle: Exclusion 5) | Not satisfied
* AAAAGAGUAGGAUAUCUGACGCGAAACAUGAGGAUCACCCAUGUAGGGCGGUCCUGCUUAAGAGAAGGGCUCAAAU [Sodirira] (puzzle: Exclusion 5) | Satisfied
* GGGCAAUUAGGAUAUACAUGAGGAUCACCCAUGUGGAAGCCCGGACAGGUAAUCCACUGUAGAAGGGAUUGCCA [Anareor] (puzzle: Exclusion 3) | Not satisfied
* GGAUCGUAUGUCAGGAUAUACCACUGGAUACAGUGGUAGAAGGGACAUGAGGAUCACCCAUGUCCUAUCGAUCC [Fiskers BMX 4 - 51] (puzzle: Brourd's mod of Exclusion 4) | Not satisfied
* AAUGUUGUUGUGAGGAUAUCGUAGUUAUUUUGAAACGAGAAGGCACAUGAGGAUCACCCAUGUUUGUUGAUGGU [JR_BMOE4_Sub061] (puzzle: Brourd's mod of Exclusion 4) | Not satisfied

Req: Exam item: decide whether the reported apparent KD of MS2 coat protein for UGCUAGUGAGGAUAUGCUGGAAUAAAGAUUUGACGUGGCGAACAUGAGGAUCACCCAUGUAGAAGGCACAAUAC [Ususedes] (puzzle: Exclusion 2) is at least 30 nM.
Resp: Not satisfied

Req: What about GUAAAGGUAGGAUAUACGAAGAAAAAGGGUAGAAGAAGAACACAUGAGGAUCACCCAUGUAGAAGGACCAAAUG [Mat - Exclusion 2 - Mod of my Tesla design - D4] (puzzle: Exclusion 2) ?
Resp: Not satisfied

Req: What about GGUCAAGAACAGAUCCGCGCUGUCAUUGACCGCUCAUUUACAUGAGGAUCACCCAUGUUUUUUGCUUGUCUUGUUAC [Edrama] (puzzle: Sensor v3, turn-off variant 2) ?
Resp: Satisfied

Req: What about AGUCUGCGAGGAUAUACAUGAGGAUCACCCAUGUGCGAGAUACUAGUGAGGUCGAUUGGUAGAAGGCGCGGACA [Mat - Exclusion 3 - Mod of JL D86] (puzzle: Exclusion 3) ?
Resp: Satisfied

Req: What about CCGGAAAUACAGGAUAUAGGAGUAAAUAUACUCCUAGAAGGGUAUACAUGAGGAUCACCCAUGUGUCCUACCGG [Fiskers Ex 6 - 67] (puzzle: Exclusion 6) ?
Resp: Not satisfied
